EC50 listing for selected compounds.
- TESTED_ON: S1P2 (Homo sapiens, UniProt O95136)
- Sequence (O95136 whole entry, species assumed): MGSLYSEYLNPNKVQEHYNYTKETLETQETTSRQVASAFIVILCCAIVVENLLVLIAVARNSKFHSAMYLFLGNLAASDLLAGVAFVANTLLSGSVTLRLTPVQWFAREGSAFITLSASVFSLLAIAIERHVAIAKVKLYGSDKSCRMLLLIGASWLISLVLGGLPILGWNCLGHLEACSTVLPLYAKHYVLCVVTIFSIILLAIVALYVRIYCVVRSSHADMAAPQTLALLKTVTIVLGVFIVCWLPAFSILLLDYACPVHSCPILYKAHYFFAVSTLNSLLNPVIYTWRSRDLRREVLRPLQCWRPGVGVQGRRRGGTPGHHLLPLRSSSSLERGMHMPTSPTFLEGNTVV
- ASSAY_COMMENT: Specificity over other S1P receptors: S1P2 CRE-bla CHOK1
- EXPERIMENTAL_CONDITIONS: S1P2 CRE-bla CHOK1, without Forskolin; read-out: S1P2 agonist value (EC50)

| COMPOUND | EC50 |
| --- | --- |
| CC(C)Oc1ccc(-c2nc(-c3cccc4c3CCC[C@@H]4NS(C)(=O)=O)no2)cc1C#N [Compound 29] | > 10 µM |

Field EC50 (entry CC(C)Oc1ccc(-c2nc(-c3cccc4c3CCC[C@@H]4NC(=O)N3CC(O)C3)no2)cc1C#N [Compound 8] ) reads > 10 µM

Given item CC(C)Oc1ccc(-c2nc(-c3cccc4c3CCC[C@H]4NS(=O)(=O)CCO)no2)cc1C#N [Compound 37] , the value recorded as its EC50 is 1.44 µM

Lab book: EC50 of CC(C)Oc1ccc(-c2nc(-c3cccc4c3CCC[C@H]4NC(=O)N3CC[C@H](O)C3)no2)cc1C#N [Compound 13] noted as > 10 µM

// sample CC(C)Oc1ccc(-c2nc(-c3cccc4c3CCC[C@@H]4NCCS(C)(=O)=O)no2)cc1C#N [Compound 49] , its EC50 was > 10 µM

According to the records, this compound COCCS(=O)(=O)N[C@H]1CCCc2c(-c3noc(-c4ccc(OC(C)C)c(C#N)c4)n3)cccc21 [Compound 33] displays EC50 of > 10 µM

----------
- TESTED_ON: S1P1/EDG1 (Homo sapiens, UniProt P21453)
- Sequence (P21453 whole entry): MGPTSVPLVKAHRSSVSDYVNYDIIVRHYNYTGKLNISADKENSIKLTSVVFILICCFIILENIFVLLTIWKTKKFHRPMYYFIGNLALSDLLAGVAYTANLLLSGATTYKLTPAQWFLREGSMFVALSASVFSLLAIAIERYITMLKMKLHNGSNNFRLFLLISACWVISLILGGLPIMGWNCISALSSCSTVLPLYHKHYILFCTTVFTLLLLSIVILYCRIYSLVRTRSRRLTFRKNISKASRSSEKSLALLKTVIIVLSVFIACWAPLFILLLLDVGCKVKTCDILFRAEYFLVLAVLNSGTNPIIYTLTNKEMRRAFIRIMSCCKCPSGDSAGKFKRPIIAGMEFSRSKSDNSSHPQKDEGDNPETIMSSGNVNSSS
- ASSAY_COMMENT: S1P1 CRE-bla CHOK1 reporter assay (inhibition of Forskolin induced cAMP)
- Format: cell-based
- EXPERIMENTAL_CONDITIONS: agonist activity range, S1P1 CRE-bla CHOK1 cells, 2 μM Forskolin; read-out: S1P1 ACTIVITY
Below: a set of entries, each annotated with reported EC50.

Consider the reported EC50 for these compounds:
| COMPOUND | TESTED_ON | EC50 |
| --- | --- | --- |
| CC(C)Oc1ccc(-c2nc(-c3cccc4c3CCC[C@H]4NC(=O)N3CCC(O)CC3)no2)cc1C#N [Compound 19] | S1P1/EDG1 (Homo sapiens, UniProt P21453) | 0.5 to 5 nM |
| CC(=O)N[C@H]1CCCc2c(-c3noc(-c4ccc(OC(C)C)c(C#N)c4)n3)cccc21 [Compound 22] | S1P1/EDG1 (Homo sapiens, UniProt P21453) | 0.05 to 0.5 nM |
| CCOc1ccc(Cc2nc(-c3cccc4c3CCC4N[C@H](C)CO)no2)cc1OCC (stereo partly shown) [Compound 62] | S1P1/EDG1 (Homo sapiens, UniProt P21453) | > 5 nM |
| CC(C)Oc1ccc(-c2nc(-c3cccc4c3CCC[C@H]4NC(=O)N3CCC[C@H](O)C3)no2)cc1C#N [Compound 18] | S1P1/EDG1 (Homo sapiens, UniProt P21453) | 0.5 to 5 nM |
| CC(C)Oc1ccc(-c2nc(-c3cccc4c3CCC[C@@H]4NS(=O)(=O)C3CC3)no2)cc1C#N [Compound 31] | S1P1/EDG1 (Homo sapiens, UniProt P21453) | 0.5 to 5 nM |

// sample CC(C)Oc1ccc(-c2nc(-c3cccc4c3CCC[C@H]4NS(=O)(=O)CCN(C)C)no2)cc1C#N [Compound 44] , its EC50 was 0.05 to 0.5 nM

Form: compound = COCC(=O)N[C@@H]1CCCc2c(-c3noc(-c4ccc(OC(C)C)c(C#N)c4)n3)cccc21 [Compound 23] ; EC50 = 0.5 to 5 nM

----------
# Lookup of reported pEC50 keyed by entry
- TESTED_ON: S1P4 (Homo sapiens)
- Construct: Tango fusion (C)
- Sequence (O95977 1-384): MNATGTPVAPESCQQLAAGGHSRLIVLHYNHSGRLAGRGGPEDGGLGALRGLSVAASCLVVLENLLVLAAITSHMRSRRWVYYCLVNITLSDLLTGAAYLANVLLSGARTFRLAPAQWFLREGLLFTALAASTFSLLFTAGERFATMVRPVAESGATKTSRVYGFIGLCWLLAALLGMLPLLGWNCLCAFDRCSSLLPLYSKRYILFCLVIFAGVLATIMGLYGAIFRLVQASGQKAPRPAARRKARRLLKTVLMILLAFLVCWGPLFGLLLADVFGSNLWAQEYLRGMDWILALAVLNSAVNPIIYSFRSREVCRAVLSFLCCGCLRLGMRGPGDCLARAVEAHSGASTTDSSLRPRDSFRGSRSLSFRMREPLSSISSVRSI
- ASSAY_COMMENT: Specificity over other S1P receptors: S1P4-bla TANGO U2OS
- EXPERIMENTAL_CONDITIONS: without Forskolin, read-out: S1P4 agonist value (EC50)
pEC50: −log10 of the molar value.

| COMPOUND | pEC50 |
| --- | --- |
| CC(C)Oc1ccc(-c2nc(-c3cccc4c3CCC[C@@H]4NC(=O)N3CC(O)C3)no2)cc1C#N [Compound 8] | < 5.00 |
| CC(C)Oc1ccc(-c2nc(-c3cccc4c3CCC[C@H]4NS(=O)(=O)CCO)no2)cc1C#N [Compound 37] | 6.06 |
| CC(C)Oc1ccc(-c2nc(-c3cccc4c3CCC[C@H]4NC(=O)N3CC[C@H](O)C3)no2)cc1C#N [Compound 13] | < 5.00 |
| COCCS(=O)(=O)N[C@H]1CCCc2c(-c3noc(-c4ccc(OC(C)C)c(C#N)c4)n3)cccc21 [Compound 33] | 6.21 |
| CC(C)Oc1ccc(-c2nc(-c3cccc4c3CCC[C@@H]4NS(C)(=O)=O)no2)cc1C#N [Compound 29] | < 5.00 |

Proceed to the following item.
For record CC(C)Oc1ccc(-c2nc(-c3cccc4c3CCC[C@@H]4NCCS(C)(=O)=O)no2)cc1C#N [Compound 49] the listed pEC50 is < 5.00

----------
- TESTED_ON: S1P1/EDG1 (Homo sapiens)
- ASSAY_COMMENT: S1P1 CRE-bla CHOK1 reporter assay (inhibition of Forskolin induced cAMP)
- Format: cell-based
- EXPERIMENTAL_CONDITIONS: agonist activity range, S1P1 CRE-bla CHOK1 cells, 2 μM Forskolin; read-out: S1P1 ACTIVITY
EC50 for assorted compounds

Solved entries (count: 5):
| COMPOUND | EC50 |
| --- | --- |
| CC(C)Oc1ccc(-c2nc(-c3cccc4c3CCC[C@H]4NS(=O)(=O)CCN3CC[C@@H](O)C3)no2)cc1C#N | 0.05 to 0.5 nM |
| CC(C)Oc1ccc(-c2nc(-c3cccc4c3CCC[C@@H]4NC(=O)N3CC(O)C3)no2)cc1C#N | 0.05 to 0.5 nM |
| CC(C)Oc1ccc(-c2nc(-c3ccc4occc4c3)no2)cc1C#N | 0.5 to 5 nM |
| CCOc1ccc(Cc2nc(-c3cccc4c3CCC4NCCS(C)(=O)=O)no2)cc1OCC (stereo not shown) | > 5 nM |
| CC(C)Oc1ccc(-c2nc(-c3cccc4c3CCC[C@@H]4NS(=O)(=O)CCN3CC[C@@H](O)C3)no2)cc1C#N | 0.5 to 5 nM |

Lab entry: S1P1/EDG1 (Homo sapiens) assay, compound CC(=O)N[C@@H]1CCCc2c(-c3noc(-c4ccc(OC(C)C)c(C#N)c4)n3)cccc21 , EC50 = 0.05 to 0.5 nM

Field EC50 (system: S1P1/EDG1 (Homo sapiens)) for entry CC(C)Oc1ccc(-c2nc(-c3cccc4c3CCC[C@H]4NC(=O)N3CC[C@H](O)C3)no2)cc1C#N = 0.05 to 0.5 nM

Value source: patent US9394264B2
